The reported measurements were obtained from the supplement of paper PMC9170038.

Listing of recorded apparent KD of MS2 coat protein by entry.
tested on: MS2 coat protein; assay: apparent KD of MS2 coat protein; designed switch direction (-1 OFF switch, 1 ON switch): -1; higher = weaker reporter binding; conditions: Eterna round: R95; input ligand: none
MEASUREMENT TYPE: apparent KD of MS2 coat protein

INSERT INTO measurements (chain_sequence, observed_measurement) VALUES
  ('CUUAGACAUGAGGAUCACCCAUGUGAGGAUAUGAAAUUAAUUAAUUAUUAAUUAUUAAUCAGAAGGCACAUAUG [Mat - Mod of Hyphema D38] (puzzle: Exclusion 1)', '41.3 nM'),
  ('CGCGACUCAGGAUAUACAUGAGGAUCACCCAUGUGGAACGACUGGGUCGAUAAAAGGUGUAGAAGGGAGGAAAA [Invebies] (puzzle: Exclusion 3)', '15.4 nM'),
  ('AUUUAAACAUAGGAUAUCGAAUUUAUCAUUUAACGAGAAGGAUGAACAUGAGGAUCACCCAUGUGGUAUCAUGG [Mat - Exclusion 6 - JL Mod - D4] (puzzle: Exclusion 6)', '368 nM'),
  ('CAUAUAGUAGUCAGGAUAUGCGAAGAGAGAAGGAAGUAGAAGGGACAUGAGGAUCACCCAUGUAUAUUGUAAAG [EX-4 Malc #3] (puzzle: Brourd''s mod of Exclusion 4)', '28.4 nM'),
  ('AGUAGAUCUACGCUUGCGUGGAUCUGCUAUGCAGGUGUUACAUGAGGAUCACCCAUGUCCUCAUUUGCUCGUCUUAU [JL turnoff v2 99.14] (puzzle: Sensor v3, turn-off variant 2)', '138 nM');

###

system: MS2 coat protein; test: apparent KD of MS2 coat protein; higher = weaker reporter binding; settings: Eterna round: R107; input ligand: tryptophan 2.4 mM
MEASUREMENT TYPE: apparent KD of MS2 coat protein (nM)

INSERT INTO assay_data (chain_sequence, target_or_test_system, unit_symbol, observed_measurement) VALUES
  ('GGAUAGGACACGGCCGCCACUAGCUAGGAUACUAGCAACAUUUCCUCAUAUGAGGAUCACCCAUAUAGGACCGGGUGUCCUAUCG', 'MS2 coat protein', 'nM', 1140),
  ('UACAUGAGGAUCACCCAUGUGUAGAGGGAUACCAGUGACAGUAAGCACCCUUGGCAGCCCGUGAACAAAGGGUGGGCAAAAUAGU [#16 Exclusion-TheophyllineA]', 'MS2 coat protein', 'nM', 33.9),
  ('ACUACAUGAGGAUCACCCAUGUGUACUGAAGGAGCGGCGGAAACGCCAGGUAGGUCGCAGUACACCUCAACCAGCGGUCCUAAGU [EAA NP+V+V2 #1]', 'MS2 coat protein', 'nM', 51.1),
  ('GUUAUGGACCUGGAUACCAGCUGGUACAAGGGCGGUCUACAUGAGGAUCACCCAUGUGUCAGCCCUUGGCAGCCAGCAACCGGCA [Teraus]', 'MS2 coat protein', 'nM', 8.95),
  ('CAAUAUAUAUGAAGGAGCGUCGAAAAUGGGUAAACAUGAGGAUCACCCAUGUAAAGGGAACGACAGGUAGGUCGCAUAUGUAUUG [AstromonsSSArgB#9]', 'MS2 coat protein', 'nM', 190),
  ('ACCUCAAUGGAUGAUACCAGCUCAAGGACGAACAUGAGGAUCACCCAUGUGACGUGGUGUAGCCCUUGGCAGCAUACUGACACCU [theeternabot_sameState_MS2_Theo_B_24]', 'MS2 coat protein', 'nM', 39.1);

###

test system: MS2 coat protein; assay: apparent KD of MS2 coat protein; designed switch direction (-1 OFF switch, 1 ON switch): -1; higher = weaker reporter binding; settings: input ligand: none
Listing of recorded apparent KD of MS2 coat protein by entry.
MEASUREMENT TYPE: apparent KD of MS2 coat protein

INSERT INTO measurements (chain_sequence, target_or_test_system, measurement_type, observed_measurement) VALUES
  ('AACCUGAGGCUUUGCUUUAGGUGUACAUGAGGAUCACCCAUGUAGGAUAUGGUAGGCAAAGCUUACCAGAAGGACAUGUUAAUU [Mat - Exclusion NG 3 - Mod of JL - D37] (Eterna round: R96, puzzle: Exclusion NG 3)', 'MS2 coat protein', 'apparent KD of MS2 coat protein', '0.0593 µM'),
  ('GAUCAUGCAGGAUAUACAUGGAACAUGUAAACAUGAAUUUCACAUGAGGAUCACCCAUGUAGAAGGGCAUGAUC [Omei Ex2 A13] (Eterna round: R97, puzzle: Exclusion 2)', 'MS2 coat protein', 'apparent KD of MS2 coat protein', '2.2 µM'),
  ('GGCAUCGGAGGAUAUACUUAUGGUGAUGCCCGAAGCUUUCUACUUGAGGAUCACCCAAGUAGAAGGCCGAUGCC [jl-ex2.4.79 ViennaUCT mod] (Eterna round: R97, puzzle: Exclusion 2)', 'MS2 coat protein', 'apparent KD of MS2 coat protein', '0.0127 µM'),
  ('AGGUCACAUGAGGAUCACCCAUGUCAGGAUAUCGUCACUGGAGCCUCGGCUCCAGUGACGAGAAGGGAUAAUUA [E1/8-A2] (Eterna round: R97, puzzle: Exclusion 1)', 'MS2 coat protein', 'apparent KD of MS2 coat protein', '0.0505 µM'),
  ('AGUACUUUCACGAAAGUGAAAGUACAAAUGAGCUUUUGAACAUGAGGAUCACCCAUGUCCUCAUAAGCUCGUCUUAA [Mat - Sensor v2 - var 2 - Mod - D175] (Eterna round: R96, puzzle: Sensor v2, turn-off variant 2)', 'MS2 coat protein', 'apparent KD of MS2 coat protein', '0.0307 µM'),
  ('AAACACACAGGAUAUGAGAGGCGGUACAUGAGGAUCACCCAUGUCCUCGGAAAUCAGCGUUCAGAAGGGUGCGGUG [Eternabot (Original) Solution 36] (Eterna round: R97, puzzle: Exclusion 5)', 'MS2 coat protein', 'apparent KD of MS2 coat protein', '0.171 µM'),
  ('GUCAGCUCGUCAGGAUAUAUAUAUACAUGAGGAUCACCCAUGUUAGAUCAGCUUCGGCAGUAUAUAUAGAAGGGACGAGCUGAC [ENG2/15-B1] (Eterna round: R96, puzzle: Exclusion NG 2)', 'MS2 coat protein', 'apparent KD of MS2 coat protein', '0.0725 µM'),
  ('GCGGAGAGAGAAGGAUAUUGAAAUGCUUCUACAUGAGGAUCACCCAUGUUCGGCAGACAUGGGACCAAGAAGGUCUAUGUCGCG [Eternabot solution 27] (Eterna round: R96, puzzle: Exclusion NG 2)', 'MS2 coat protein', 'apparent KD of MS2 coat protein', '0.0554 µM'),
  ('CUUCACCCACCAGAGCUCACCCACAUACCAGCUCUGGUGACAUGAGGAUCACCCAUGUUUUUUGCCCGUCUUAUCUU [Intibima] (Eterna round: R96, puzzle: Sensor v3, turn-off variant 2)', 'MS2 coat protein', 'apparent KD of MS2 coat protein', '0.0791 µM'),
  ('UUAUUAUAUGAAGGAUAUACUUAACAUGAGGAUCACCCAUGUGGUGUUGUGAGUGAGUGAGUUUAGUAGAAGGUCAAUUAUUUU [JMF''s solution 28] (Eterna round: R96, puzzle: Exclusion NG 2)', 'MS2 coat protein', 'apparent KD of MS2 coat protein', '0.335 µM'),
  ('ACACAAAGCUAGGAUAUCCAGGCAUCUUCGGCCGGAGAAGGAGCCACAUGAGGAUCACCCAUGUGGUGAUCCUG [eternacac ex6r4 sub5] (Eterna round: R97, puzzle: Exclusion 6)', 'MS2 coat protein', 'apparent KD of MS2 coat protein', '0.0506 µM'),
  ('UUAUUAAUUAAUAUUAUAAGAUCACAUGAGGAUCACCCAUGUCAGGAUAUCAGCUCGAUUAGAGCUGAGAAGGGACAAAUAAUA [ExNG3/15-B1] (Eterna round: R96, puzzle: Exclusion NG 3)', 'MS2 coat protein', 'apparent KD of MS2 coat protein', '0.268 µM'),
  ('AGAUAACAUGAGGAUCACCCAUGUGAGGAUAUUUACCCAAGAGCUUCGGCUCUCAGGUGAAGAAGGCACAUUGA [EX1 #58] (Eterna round: R97, puzzle: Exclusion 1)', 'MS2 coat protein', 'apparent KD of MS2 coat protein', '0.0864 µM'),
  ('AAAUUAGCAAGUAGGUCCGACAUGAGGAUCACCCAUGUUAUCUGAAAUAACGCUGCAUGAAAGUGCGCUCGUCUUAG [Sensor-V1 #9] (Eterna round: R97, puzzle: Sensor, turn-off variant 1)', 'MS2 coat protein', 'apparent KD of MS2 coat protein', '0.0739 µM'),
  ('UGGCUACAUGAGGAUCACCCAUGUCAGGAUAUGCCGUUAAAUUGACAUCAACGUACGGGUAGAAGGGACUGCGU [1st #8] (Eterna round: R97, puzzle: Exclusion 1)', 'MS2 coat protein', 'apparent KD of MS2 coat protein', '0.0456 µM'),
  ('GGUCAGAUGGUAGGAUAUCCAUAUCGAGUGACCCUUUCAUAACAUGAGGAUCACCCAUGUUGGUGGGAGAAGGGCCGUACGGCG [salish99_ExNG02_R04_019] (Eterna round: R96, puzzle: Exclusion NG 2)', 'MS2 coat protein', 'apparent KD of MS2 coat protein', '0.022 µM'),
  ('UGUGUCUCAGGAGGAUAUCUCUCGGUUGCCGUUAGAGAAGGCUUGAAACAUGAGGAUCACCCAUGUAAAUGGCCCGUCCUCCAA [Lalecetege] (Eterna round: R96, puzzle: Exclusion NG 1)', 'MS2 coat protein', 'apparent KD of MS2 coat protein', '0.0141 µM'),
  ('ACAUGAGGAUCACCCAUGUCAGGUGGGUCCUCUCCGGCUGUUGAGGAUAUAGUCCGGUAUCCGCGCUAGAAGGUGAGGGCCGGC [Aenatbe mod 17] (Eterna round: R96, puzzle: Exclusion NG 3)', 'MS2 coat protein', 'apparent KD of MS2 coat protein', '0.0337 µM');
